# System: ACHN renal
# Assay text: NCI-60 one-dose screen, 48 h (100 = growth as untreated, 0 = no growth, -100 = all killed)
# Experimental context: 10 µM unless noted
The panel holds about 83,000 compounds, 20% with a hit somewhere; the sample as a whole holds those more often.
// reported growth for each item listed
Observed property: growth (%)

Sample smiles	Observed property	Readout number
Cc1c(-c2csc(-n3nc(C(F)(F)F)cc3C(F)(F)F)n2)no[n+]1[O-]	growth	107
COc1ccc(/C=C2/SC(=O)N(CC(=O)N3CCN(c4cc5c(cc4F)c(=O)c(C(=O)O)cn5C4CC4)CC3)C2=O)cc1	growth	102
O=C1N=c2ccccc2=C1c1sc(=Nc2ccccc2)n(Nc2ccccc2)c1O	growth	109
CCOC(=O)c1sc(-c2ccc(OS(=O)(=O)c3ccccc3[N+](=O)[O-])c(C=O)c2)nc1C	growth	101
Cc1nc2ccccc2c(/C=C/c2ccc(F)cc2)c1C(N)=O	growth	100
COc1cccc2c(=O)c3c(sc12)c(NCCCNCCO)nc1ccccc13	growth	33.6
COc1cc(/C=C2\CN(C)C/C(=C\c3cc(CN4CCCC4)c(O)c(OC)c3)C2=O)cc(CN2CCCC2)c1O	growth	79
COc1ccc(Cn2c(Br)c3c(c2Br)-c2nc(N)sc2CC3)cc1	growth	55.2
CCn1c(Cc2ccccc2Nc2c(Cl)cccc2Cl)nnc1SCC(=O)NN1C(=O)/C(=C/c2cccc(OC)c2OC)SC1=S	growth	96.9

====

# System: SR leukemia
# Assay text: NCI-60 one-dose screen, 48 h (100 = growth as untreated, 0 = no growth, -100 = all killed)
# Experimental context: 10 µM unless noted
About 83,000 compounds went through this panel and 20% of them were active in at least one assay; those are over-represented in the sample as a whole.
Observed property: growth (%)

Compound	System	Readout number
O=C(O)CCC(=O)c1ccc(C2CCCCCC2)cc1	SR leukemia	93.8
O=C(O)c1cn(C2CC2)c2cc(N3CCN(C(=O)C[n+]4ccccc4)CC3)c(F)cc2c1=O	SR leukemia	107
O=C(Nc1ccc(Cl)cc1)N1CCN(c2ccc3nncn3n2)CC1	SR leukemia	-40.5
O=c1nc2sc3nc4ccccc4cc3cc-2s1	SR leukemia	134
COc1ccc(-c2nnc(COc3ccc(C(=O)/C=C/c4ccco4)cc3)o2)cc1	SR leukemia	0.0515
O=C(NC(=S)Nc1cccc(NC(=S)NC(=O)c2ccccc2)c1)c1ccccc1	SR leukemia	79.8
CCOc1ccc2c(c1)CN(Cc1ccc(Cl)cc1)CO2	SR leukemia	41.5
Cn1c(=O)n(C)c2cc(CNCCNc3ccnc4cc(Cl)ccc34)ccc21	SR leukemia	3.33
Cn1nc(C(F)(F)F)c(-c2ccc(Cl)c(C(F)(F)F)c2)c1-c1ccc(OCc2ccc(Cl)cc2)cc1O	SR leukemia	25.1
CC1=NCC2NC(=O)NC(C)=C12 (stereo not drawn)	SR leukemia	104
COc1ccc(OC)c(NC(=O)/C(C#N)=C/c2ccco2)c1	SR leukemia	74.3
CCOC(=O)C1(Cc2ccccc2)CCN(Cc2cccc(OC)c2O)CC1	SR leukemia	7.58
Cc1ccc(S(=O)c2ccc([N+](=O)[O-])c3nonc23)cc1 (stereo not drawn)	SR leukemia	-8.16
Nc1nc(N)c2c(n1)NC1(C=C(O)c3ccccc31)C1=C(N2)c2ccccc2C1=O (stereo not drawn)	SR leukemia	134
CCOC(=O)c1sc(-c2ccc(OS(=O)(=O)c3ccc(Br)s3)c(C=O)c2)nc1C	SR leukemia	13.9
COc1ccc(-c2cn[nH]c2-c2ccc(OC)c(O)c2)cc1	SR leukemia	33.7
O=C(NC1C(O)OC(CO)C(O)C1O)NS(=O)(=O)c1ccc(Cl)cc1 (stereo not drawn)	SR leukemia	100
Cc1cc(OC(=O)c2ccc([N+](=O)[O-])cc2)nc2[nH]c(=O)sc12	SR leukemia	108
COCCN(C(=O)Cc1cccs1)C(C(=O)NCc1ccc(OC)cc1)c1ccc(C(C)C)cc1 (stereo not drawn)	SR leukemia	74.3
COc1cc(/C=C2\Oc3cc(OCCCN4CCCC4)ccc3C2=O)cc(OC)c1	SR leukemia	-49.3
COc1cccc2cc(N(C)c3nc(C)nc4ccsc34)ccc12	SR leukemia	2.36
O=NN(Cc1cccnc1)C(=O)NC1CCCCC1	SR leukemia	99.7
CCCCN1CCN(c2ccc3nc(-c4ccc5nc(-c6ccc(OC)c(OC)c6)[nH]c5c4)[nH]c3c2)CC1	SR leukemia	-6.6
Cc1cc(Br)c(N)c(Br)c1	SR leukemia	100
O=S(=O)(c1ccc(NC(=S)NC23CC4CC(CC(C4)C2)C3)cc1)N1CCCCC1	SR leukemia	-21.9
N#CC(C#N)=Cc1c(-c2ccccc2)[nH]c2ccccc12	SR leukemia	32.2
COc1cc(/C=C2\CCC/C(=C\c3cc(CN4CCCCC4)c(O)c(OC)c3)C2=O)cc(CN2CCCCC2)c1O	SR leukemia	6.77
CN(C)/C=C1\SC(=Nc2ccc(Cl)cc2)NC1=O	SR leukemia	123
Clc1ccc(Nc2nnc(-c3ccc4c(c3)OCO4)o2)cc1	SR leukemia	83.4
O=C(CSc1ncccc1C(=O)O)Nc1ccc(Oc2ccccc2)cc1	SR leukemia	78.2
COc1ccc(C(=O)C2CC2c2ccc(Cl)cc2)cc1 (stereo not drawn)	SR leukemia	77.8
O=C1/C(=C/c2ccc(O)cc2)COc2ccc(O)cc21	SR leukemia	33
COc1ccc(-c2cn3c(C(=O)Nc4ccccc4Cl)c(-c4ccccc4)c4c3n2CCCC4)cc1	SR leukemia	62.8
CN(C)c1ccc(/C=C/c2ccnc3c(O)cccc23)cc1	SR leukemia	-11.1
COc1ccc(-n2c(C(O)c3ccccc3)nn(CN3CCOCC3)c2=S)cc1 (stereo not drawn)	SR leukemia	193
CCn1c(Cc2ccccc2Nc2c(Cl)cccc2Cl)nnc1SCC(=O)NN1C(=O)/C(=C/c2cccc(OC)c2OC)SC1=S	SR leukemia	102
CCN1C(=O)N(CC)C2Nn3c(s/c(=C4\C(=O)N(C(C)C)c5ccccc54)c3=O)=NC21 (stereo not drawn)	SR leukemia	21.2
COc1cc(/C=C2\CN(C)C/C(=C\c3cc(CN4CCCCC4)c(O)c(OC)c3)C2=O)cc(CN2CCCCC2)c1O	SR leukemia	28.5
O=C(NC1CCN(Cc2ccccc2)CC1)c1cc(C(=O)NC2CCN(Cc3ccccc3)CC2)cc(C(=O)NC2CCN(Cc3ccccc3)CC2)c1	SR leukemia	20.1
Cc1ccc2c(n1)C(=O)C(Oc1ccc(Br)cc1)=CC2=O	SR leukemia	92.1
COc1cccc2c1C=C1CCCCC3=Cc4c(OC)cccc4OC13O2	SR leukemia	28.6
COc1cc(CNC(=O)Cc2ccccc2)ccc1OCc1cn(-c2ccc(F)cc2)nn1	SR leukemia	106
CC(C)Cn1c2c(c(=S)[nH]c1=O)CCC2	SR leukemia	106

====

# Test system: ACHN renal
# Assay text: NCI-60 one-dose screen, 48 h (100 = growth as untreated, 0 = no growth, -100 = all killed)
# Experimental context: 10 µM unless noted
This is part of a sample that, as a whole, favours compounds with a hit. Of some 83,000 tested, about 20% had one in any assay.
// boundary case: growth equal to 80% maps to not fulfilled; strictly smaller maps to fulfilled

Compound	System	Class name
O=C1CCC(N2C(=O)c3cccc(NCCCCCCOc4ccc(Nc5nccc(Nc6ccccc6)n5)cc4)c3C2=O)C(=O)N1 (stereo not given)	ACHN renal	fulfilled
O=c1oc2ccc(Cl)cc2c(=O)n1-c1ccc(F)cc1F	ACHN renal	fulfilled
COc1ccc(/C=C2\SC(=Nc3ccccc3)NC2=O)cc1	ACHN renal	fulfilled
Nc1ccc(C2c3ccccc3Oc3ccccc32)cc1	ACHN renal	not fulfilled
O=c1oc2ccc(Br)cc2c(=O)n1-c1ccc(F)cc1F	ACHN renal	fulfilled
COc1c(B(O)O)cccc1-c1nc2ccc3n[nH]c(F)c3c2c2c1CCCC2	ACHN renal	fulfilled
Nc1nc(N)c2c(n1)NC1(C=C(O)c3ccccc31)C1=C(N2)c2ccccc2C1=O (stereo not given)	ACHN renal	not fulfilled
O=C1c2cc(Cl)ccc2Oc2cc([N+](=O)[O-])ccc2N1c1ccc(F)cc1F	ACHN renal	not fulfilled
O=C(/C=C/c1ccc(Cl)cc1)c1ccc(Nc2nc(NCCO)nc(Nc3ccc(Cl)cc3)n2)cc1	ACHN renal	fulfilled

====

// reported growth for each item listed
# Tested on: MDA-MB-231 breast
# Assay text: NCI-60 one-dose screen, 48 h (100 = growth as untreated, 0 = no growth, -100 = all killed)
# Experimental context: 10 µM unless noted
This is part of a sample that, as a whole, favours compounds with a hit. Of some 83,000 tested, about 20% had one in any assay. Active and inactive are the calls of the source. How the source made its calls: active means growth percent below 10; inactive means the rest.

Molecule	growth
COc1ccc(Cn2c(Br)c3c(c2Br)-c2nc(NC(=O)c4ccc(OC)cc4)sc2CC3)cc1	52.6% (inactive)
CC(C)CCOc1ccc(-c2n[nH]c(C(F)(F)F)c2-c2cncc(C#N)c2)c(O)c1	1.43% (active)
COc1ccc(/C(C#N)=C/c2nc3c(N4CCOCC4)nc(Cl)nc3n2C)cc1OC	9.29% (active)
Nc1ccc(C2c3ccccc3Oc3ccccc32)cc1	104% (inactive)
O=C(NC1C(O)OC(CO)C(O)C1O)NS(=O)(=O)c1ccc(Cl)cc1 (stereo not given)	103% (inactive)
COC(=O)c1c2c(c(C)[n+]([O-])c1C)C(=O)C=C(NCc1ccccc1)C2=O	-26% (active)
O=c1oc2ccc(I)cc2c(=O)n1-c1ccc(I)cc1F	-9.68% (active)
COc1ccc(CSc2nnc(SCC(=O)Nc3ccc(Cl)cc3)s2)cc1	72.1% (inactive)
CCOC(=O)c1cc2c(n1Cc1cc(OC)c(OC)c(OC)c1)-c1oncc1CCC2	12.3% (inactive)
CCn1c(Cc2ccccc2Nc2c(Cl)cccc2Cl)nnc1SCC(=O)NN1C(=O)/C(=C/c2cccc(OC)c2OC)SC1=S	102% (inactive)
COc1nccc2cc3c(=O)n4c(cc5ccccc54)c(=O)n3c12	90.3% (inactive)
COC(=O)/C(CCC=C(C)C)=C1\[C@@H](OC(C)=O)C[C@@]2(C)[C@H]1C[C@@H](O)[C@H]1[C@@]3(C)CC[C@H](NCCCNCCCCNCCCN)[C@@H](C)[C@@H]3CC[C@@]12C	56% (inactive)
COc1ccc(-c2nocc2-c2cccs2)cc1	92.8% (inactive)
FC(F)(F)c1cccc(Nc2nc3ccccc3nc2Nc2cccc(C(F)(F)F)c2)c1	-56.3% (active)
O=C(N=Nc1c(O)[nH]c2ccccc12)c1oc2ccccc2c1CN1CCN(c2ccccc2)CC1	24.6% (inactive)
O=C(Nc1ccc(Br)cc1F)c1cc(Cl)ccc1O	-27.9% (active)
CCCCC(O)(c1ccc(Cl)cc1)C(CN1CCOCC1)c1ccc(Cl)cc1 (stereo not given)	35.8% (inactive)
CCOC(=O)C1=C(C)c2ccc(OC)c(OC)c2C1	117% (inactive)
COc1ccc(N(C)c2nc(N)nc3sc4c(c23)CCCC4)cc1	25.5% (inactive)
COc1ccc(-c2cn3c(C(=O)Nc4ccccc4Cl)c(-c4ccccc4)c4c3n2CCCC4)cc1	87.3% (inactive)
